- Tested on: Mycobacterium tuberculosis Erdman (autoluminescent)
- assay_notes: FIC90 (Loewe) at 90% inhibition (log2); higher = more antagonistic
- condition_info: in vitro model: acidic pH 5.7; time point: terminal (~4-5 doublings, model-specific)
Here the recorded FIC90 is given for each entry.
Please respond with just the number, no unit label.

Below, 4 molecules whose answers are already recorded.
CC[C@@H](CO)NCCN[C@@H](CC)CO [ethambutol] + CC(=O)NC[C@H]1CN(c2ccc(N3CCOCC3)c(F)c2)C(=O)O1 [linezolid]: 0.495
CC[C@@H](CO)NCCN[C@@H](CC)CO [ethambutol] + NNC(=O)c1ccncc1 [isoniazid]: 0.229
COc1c(N2C[C@@H]3CCCN[C@@H]3C2)c(F)cc2c(=O)c(C(=O)O)cn(C3CC3)c12 [moxifloxacin] + NC(=O)c1cnccn1 [pyrazinamide]: -1.08
CC(=O)NC[C@H]1CN(c2ccc(N3CCOCC3)c(F)c2)C(=O)O1 [linezolid] + CO[C@H]1/C=C/O[C@@]2(C)Oc3c(C)c(O)c4c(O)c(c(/C=N/N5CCN(C6CCCC6)CC5)c(O)c4c3C2=O)NC(=O)/C(C)=C\C=C\[C@H](C)[C@H](O)[C@@H](C)[C@@H](O)[C@@H](C)[C@H](OC(C)=O)[C@@H]1C [rifapentine]: 0.184

// switching to the query molecule
input: Using Mycobacterium tuberculosis Erdman (autoluminescent) as the test system, report measured FIC90 of COc1nc2ccc(Br)cc2cc1[C@@H](c1ccccc1)[C@@](O)(CCN(C)C)c1cccc2ccccc12 [bedaquiline] + CO[C@H]1/C=C/O[C@@]2(C)Oc3c(C)c(O)c4c(O)c(c(/C=N/N5CCN(C6CCCC6)CC5)c(O)c4c3C2=O)NC(=O)/C(C)=C\C=C\[C@H](C)[C@H](O)[C@@H](C)[C@@H](O)[C@@H](C)[C@H](OC(C)=O)[C@@H]1C [rifapentine] .
output: 0.396

----------
- Test system: Mycobacterium tuberculosis Erdman (autoluminescent)
- assay_notes: Einf, fitted maximum growth inhibition of combination (fraction); higher = stronger maximal inhibition
- condition_info: in vitro model: valerate; time point: terminal (~4-5 doublings, model-specific)
measure_name: Einf
Please respond with just the number, no unit label.

Below, 4 molecules whose answers are already recorded.
NNC(=O)c1ccncc1 [isoniazid] + NC(=O)c1cnccn1 [pyrazinamide]: 0.839
COc1nc2ccc(Br)cc2cc1[C@@H](c1ccccc1)[C@@](O)(CCN(C)C)c1cccc2ccccc12 [bedaquiline] + CC(=O)NC[C@H]1CN(c2ccc(N3CCOCC3)c(F)c2)C(=O)O1 [linezolid]: 0.947
COc1nc2ccc(Br)cc2cc1[C@@H](c1ccccc1)[C@@](O)(CCN(C)C)c1cccc2ccccc12 [bedaquiline] + O=[N+]([O-])c1cn2c(n1)OC[C@@H](OCc1ccc(OC(F)(F)F)cc1)C2 [pretomanid]: 0.96
CC(C)/N=c1\cc2n(-c3ccc(Cl)cc3)c3ccccc3nc-2cc1Nc1ccc(Cl)cc1 [clofazimine] + CO[C@H]1/C=C/O[C@@]2(C)Oc3c(C)c(O)c4c(O)c(c(/C=N/N5CCN(C6CCCC6)CC5)c(O)c4c3C2=O)NC(=O)/C(C)=C\C=C\[C@H](C)[C@H](O)[C@@H](C)[C@@H](O)[C@@H](C)[C@H](OC(C)=O)[C@@H]1C [rifapentine]: 0.918

input: Using Mycobacterium tuberculosis Erdman (autoluminescent) as the test system, report measured Einf of COc1nc2ccc(Br)cc2cc1[C@@H](c1ccccc1)[C@@](O)(CCN(C)C)c1cccc2ccccc12 [bedaquiline] + CO[C@H]1/C=C/O[C@@]2(C)Oc3c(C)c(O)c4c(O)c(c(/C=N/N5CCN(C)CC5)c(O)c4c3C2=O)NC(=O)/C(C)=C\C=C\[C@H](C)[C@H](O)[C@@H](C)[C@@H](O)[C@@H](C)[C@H](OC(C)=O)[C@@H]1C [rifampicin] .
output: 0.956

input: Using Mycobacterium tuberculosis Erdman (autoluminescent) as the test system, report measured Einf of O=[N+]([O-])c1cn2c(n1)OC[C@@H](OCc1ccc(OC(F)(F)F)cc1)C2 [pretomanid] + CO[C@H]1/C=C/O[C@@]2(C)Oc3c(C)c(O)c4c(O)c(c(/C=N/N5CCN(C)CC5)c(O)c4c3C2=O)NC(=O)/C(C)=C\C=C\[C@H](C)[C@H](O)[C@@H](C)[C@@H](O)[C@@H](C)[C@H](OC(C)=O)[C@@H]1C [rifampicin] .
output: 0.943

input: Using Mycobacterium tuberculosis Erdman (autoluminescent) as the test system, report measured Einf of O=[N+]([O-])c1cn2c(n1)OC[C@@H](OCc1ccc(OC(F)(F)F)cc1)C2 [pretomanid] + CO[C@H]1/C=C/O[C@@]2(C)Oc3c(C)c(O)c4c(O)c(c(/C=N/N5CCN(C6CCCC6)CC5)c(O)c4c3C2=O)NC(=O)/C(C)=C\C=C\[C@H](C)[C@H](O)[C@@H](C)[C@@H](O)[C@@H](C)[C@H](OC(C)=O)[C@@H]1C [rifapentine] .
output: 0.954

input: Using Mycobacterium tuberculosis Erdman (autoluminescent) as the test system, report measured Einf of CC(C)/N=c1\cc2n(-c3ccc(Cl)cc3)c3ccccc3nc-2cc1Nc1ccc(Cl)cc1 [clofazimine] + NC(=O)c1cnccn1 [pyrazinamide] .
output: 0.938
